FYI, the data here is from patent US6399614B1.

Measured BVC after treatment of individual entries
Tested on: urinary bladder
Assay summary: Cystometric parameters (cystometrogram) in conscious rats
Type: in vivo, rat
Condition notes: 15 min after i.v. 300 μg/kg; mean ± S.E.
Reported property: BVC after treatment (mL)

compound=COc1ccccc1N1CCN(CCN(C(=O)C2CCCCC2)c2ccccc2[N+](=O)[O-])CC1 reported_property="BVC after treatment" numeric_readout=0.87
compound="Cc1c(-c2ccccc2)oc2c(C(=O)OCCN3CCCCC3)cccc2c1=O [Flavoxate, flavoxate, reference compound]" reported_property="BVC after treatment" numeric_readout=0.87
compound="CCN(CC)CC#CCOC(=O)C(O)(c1ccccc1)C1CCCCC1 (stereo not drawn) [Oxybutinin, oxybutynin, reference compound]" reported_property="BVC after treatment" numeric_readout=0.83
compound=O=C(C1CCCCC1)N(CCN1CCN(c2cccc3[nH]ccc23)CC1)c1ccccc1[N+](=O)[O-] reported_property="BVC after treatment" numeric_readout=0.95
compound=COc1ccccc1N1CCN(CCN(C(=O)C2CCCCC2)c2ccccc2I)CC1 reported_property="BVC after treatment" numeric_readout=0.71
compound=COc1ccccc1N1CCN(CCN(C(=O)C2CCCCC2)c2ccccc2OCC(F)(F)F)CC1 reported_property="BVC after treatment" numeric_readout=0.89
compound="COc1ccccc1N1CCN(CCN(C(=O)C2CCCCC2)c2ccccc2)CC1 [Compound A, reference compound]" reported_property="BVC after treatment" numeric_readout=0.87
compound=O=C(C1CCCCC1)N(CCN1CCN(c2cccc3[nH]ccc23)CC1)c1ccccc1OC(F)(F)F reported_property="BVC after treatment" numeric_readout=0.84
compound=COc1ccccc1N1CCN(CCN(C(=O)C2CCCCC2)c2ccccc2OC)CC1 reported_property="BVC after treatment" numeric_readout=0.77

* * *

Measured pKi of individual entries
Target desc: human 5-HT1A serotonergic receptor (Homo sapiens)
Sequence (P08908 1-422): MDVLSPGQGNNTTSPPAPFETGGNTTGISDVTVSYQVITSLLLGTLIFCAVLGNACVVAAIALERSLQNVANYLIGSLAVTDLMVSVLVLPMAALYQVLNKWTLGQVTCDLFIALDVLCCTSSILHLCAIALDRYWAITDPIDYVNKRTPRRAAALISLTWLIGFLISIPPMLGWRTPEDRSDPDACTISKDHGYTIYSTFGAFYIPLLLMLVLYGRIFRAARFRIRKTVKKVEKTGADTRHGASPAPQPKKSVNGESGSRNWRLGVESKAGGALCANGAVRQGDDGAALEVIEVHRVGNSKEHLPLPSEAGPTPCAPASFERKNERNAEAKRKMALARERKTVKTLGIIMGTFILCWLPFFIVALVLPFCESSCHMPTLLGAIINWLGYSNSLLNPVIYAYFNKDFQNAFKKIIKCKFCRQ
Assay summary: Radioreceptor binding, recombinant human 5-HT1A receptors ([3H]8-OH-DPAT, HeLa membranes)
Condition notes: recombinant human receptor, [3H]8-OH-DPAT; Ki from IC50 by Cheng & Prusoff; read-out: Binding affinity for the 5-HT1A receptor, Ki
pKi: −log10 of the molar value.
Reported property: pKi

compound="COc1ccc(Br)c(CN2CCN(CCN(C(=O)C3CCCCC3)c3ccccc3C#N)CC2)c1 [Example 83]" reported_property=pKi numeric_readout=8.88
compound="COc1ccccc1NCCN1CCN(c2ccccc2OC)CC1 [Example 20]" reported_property=pKi numeric_readout=7.61
compound="COc1ccccc1[N+]1([O-])CCN(CCN(C(=O)C2CCCCC2)c2ccccc2[N+](=O)[O-])CC1 [Example 30]" reported_property=pKi numeric_readout=8.10
compound="O=C(C1CCCCC1)N(CCN1CCN(c2cccc3[nH]ccc23)CC1)c1ccccc1OC(F)(F)F [Example 51]" reported_property=pKi numeric_readout=9.62
compound="COc1cc([N+](=O)[O-])ccc1N1CCN(CCN(C(=O)C2CCCCC2)c2ccccc2OC(F)(F)F)CC1 [Example 55]" reported_property=pKi numeric_readout=7.97
